# tgt: EGFR (Homo sapiens)
# Construct: Add 7 ug A431 cell lysate per well (EGFR source); endogenous in cells; host or cells: A431
# Sequence (P00533 25-1210): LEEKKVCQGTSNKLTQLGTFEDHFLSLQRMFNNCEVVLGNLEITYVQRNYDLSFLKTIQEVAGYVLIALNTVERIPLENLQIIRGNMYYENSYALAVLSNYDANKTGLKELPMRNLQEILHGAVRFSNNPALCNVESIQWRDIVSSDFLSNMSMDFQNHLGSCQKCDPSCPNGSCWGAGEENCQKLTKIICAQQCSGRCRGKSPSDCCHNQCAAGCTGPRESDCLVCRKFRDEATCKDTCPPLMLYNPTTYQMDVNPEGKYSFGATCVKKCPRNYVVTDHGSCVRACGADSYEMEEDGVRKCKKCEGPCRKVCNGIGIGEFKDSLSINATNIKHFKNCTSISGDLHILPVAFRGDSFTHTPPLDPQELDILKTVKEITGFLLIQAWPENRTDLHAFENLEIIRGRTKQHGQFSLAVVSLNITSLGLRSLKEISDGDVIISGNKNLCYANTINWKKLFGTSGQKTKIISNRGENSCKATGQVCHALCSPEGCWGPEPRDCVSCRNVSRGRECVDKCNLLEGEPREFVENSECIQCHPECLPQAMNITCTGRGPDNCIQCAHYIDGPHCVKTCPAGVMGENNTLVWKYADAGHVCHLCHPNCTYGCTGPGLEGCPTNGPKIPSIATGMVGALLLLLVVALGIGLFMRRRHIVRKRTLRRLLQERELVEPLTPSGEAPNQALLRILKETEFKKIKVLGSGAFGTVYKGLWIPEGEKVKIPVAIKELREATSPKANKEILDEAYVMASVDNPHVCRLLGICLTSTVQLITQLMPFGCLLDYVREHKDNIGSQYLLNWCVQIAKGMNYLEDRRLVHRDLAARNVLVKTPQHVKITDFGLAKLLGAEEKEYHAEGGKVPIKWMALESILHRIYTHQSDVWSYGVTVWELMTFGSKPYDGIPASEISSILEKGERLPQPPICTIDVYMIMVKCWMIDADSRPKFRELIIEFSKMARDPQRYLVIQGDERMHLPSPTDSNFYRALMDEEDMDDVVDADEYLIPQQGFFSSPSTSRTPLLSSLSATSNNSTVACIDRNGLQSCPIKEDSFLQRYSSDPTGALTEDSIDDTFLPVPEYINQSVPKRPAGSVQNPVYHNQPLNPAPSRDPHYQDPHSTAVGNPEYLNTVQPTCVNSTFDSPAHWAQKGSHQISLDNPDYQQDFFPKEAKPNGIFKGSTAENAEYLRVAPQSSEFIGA
# assay.procedure: EGFR ELISA assay (in vitro kinase activity, EGFR captured from A431 cell lysate)
# Type: biochemical
# Set-up: concentration or dose not given beside the values
Reported Biochem EGFR %Inhibition is given for each of the following compounds.
Report field: quantity (unit follows the number).

Some compounds with known Biochem EGFR %Inhibition results, for comparison:
>  <compound>
O=C1Nc2ccc(S(=O)(=O)N3CCOCC3)cc2C1=Cc1cc2ccccc2nc1Cl

>  <Biochem EGFR %Inhibition>
0.8%

$$$$
>  <compound>
O=C1Nc2ccc(CCCl)cc2C1=Cc1c(Br)cnn1-c1ccc(Cl)cc1

>  <Biochem EGFR %Inhibition>
17.8%

$$$$
>  <compound>
O=C1Nc2ccc(S(=O)(=O)Nc3ccc(C(F)(F)F)cc3)cc2C1=Cc1ccc([N+](=O)[O-])cc1

>  <Biochem EGFR %Inhibition>
6.3%

$$$$

Kindly note the recorded Biochem EGFR %Inhibition for Cc1c(Br)ccc2c1C(=Cc1ccc(N(C)C)cc1)C(=O)N2 , which is -10.2%
